Each recorded value in this set is attributed to PubChem BioAssay (NCATS).

protocol.summary: qHTS for Inhibitors of the Functional Ribonucleoprotein Complex (vRNP) of Lymphocytic Choriomeningitis Arenaviruses (LCMV): Viability assay - alamar blue signal for LCMV Primary Screen (AID 1347085); also: nearly all actives have a fitted effect of over 80% in size
measurement.parameters: alamar blue viability counter-screen, LCMV vRNP screen cells; series mostly up to 57.5 µM
Results filed as inconclusive are left out. Active and inactive are the calls of the source. Calls follow the shape of the full dose curve; tested in HEK293 reporter line.
Response enum: active, inactive

[[record]]
molecule = "CC1(C)CCC(CN2CCN(c3ccc(C(=O)NS(=O)(=O)c4ccc(NCC5CCOCC5)c([N+](=O)[O-])c4)c(Oc4cnc5[nH]ccc5c4)c3)CC2)=C(c2ccc(Cl)cc2)C1"
label = "inactive"


Query :: What outcome does the record of this test show for CNCC(=O)O ?
Result :: inactive

Query :: Field entry: COc1cc(/C=C(\C#N)C(=O)c2ccc(O)c(O)c2)cc(I)c1O
Result :: inactive

Query :: Same thing, different molecule: CCCCCCC(=O)OC1CC(C)(C)NC(C)(C)C1
Result :: inactive

Query :: Then this molecule: CCOC(=O)Cc1ccccc1
Result :: inactive

Query :: Next: C[N+](C)(C)CCO
Result :: inactive

Query :: Input O=C(O)[C@H](CC(=O)N1C[C@@H]2CCCC[C@H]2C1)Cc1ccccc1
Result :: inactive

Query :: Moving on to the next molecule: CC1(C)C[C@H]2C3=CCC4[C@@]5(C)CC[C@H](O)[C@](C)(CO)C5CC[C@@]4(C)[C@]3(C)C[C@@H](O)[C@@]2(CO)[C@@H](O)[C@@H]1O (stereo partly specified)
Result :: inactive

Query :: Please answer likewise for CCOc1cc2c(c(F)c1OCC)C(=N)N(CC(=O)c1cc(N3CCOCC3)c(OC)c(C(C)(C)C)c1)C2
Result :: active

Query :: Follow-up item: COc1ccc(-n2nc(C(N)=O)c3c2C(=O)N(c2ccc(N4CCCCC4=O)cc2)CC3)cc1
Result :: inactive

Query :: Also need CC(=O)OCC=C(C)C , thanks.
Result :: inactive

Query :: Also CCCCCCC(=O)O ?
Result :: inactive

Query :: Cool, now OC1O[C@H](c2ccc3c(c2)OCO3)[C@H]2CO[C@H](c3ccc4c(c3)OCO4)[C@@H]12 (stereo partly specified)
Result :: inactive

Query :: Here is the next molecule: CCCCCCCCC=O
Result :: inactive

Query :: Lookup COC1=CC(=O)[C@@]2([C@@H]1O)[C@@H](Cl)C[C@]13C(OC)=C(OC)C(=O)C[C@]21CCN3C
Result :: inactive

Query :: Here is the next molecule: CCCC(C)C(O)CC (stereo unspecified)
Result :: inactive

---

protocol.summary: Inducers of the Endoplasmic Reticulum Stress Response (ERSR) in human glioma: Validation (AID 504836); also: 0% is about no effect
measurement.parameters: human glioma cells, ER stress response reporter; series mostly up to 38.3 µM
Calls of active or inactive are those of the source. Calls come from the whole dose curve; as a rule, active = well fitted curve in the direction sought with a large enough effect; inconclusive = small, poorly fitted or top-dose-only effect, or effect the other way, or another doubt; inactive = no such curve, though single readings can be large or run the other way.
property.label: outcome

[[record]]
molecule = "COc1cc2c(CCNC(C)=O)c[nH]c2cc1O"
reported = "inactive"

[[record]]
molecule = "CCCCCCC/C=C\\CCCCCCCCC(=O)O"
reported = "inactive"

[[record]]
molecule = "Clc1ccc(N2CCN(Cc3c[nH]c4ncccc34)CC2)cc1"
reported = "inactive"

[[record]]
molecule = "CN(C)C(=O)/N=N/C(=O)N(C)C"
reported = "inactive"

[[record]]
molecule = "N=C(N)SCCc1cnc[nH]1"
reported = "inactive"


Query :: Reported outcome for C=CC[C@H](N)C(=O)O : what is it?
Result :: inactive

Query :: Now consider Oc1cc2c(c(Cl)c1O)CCNCC2c1ccccc1 (configuration not stated) .
Result :: inactive

---

System: Es-2
protocol.summary: Primary qHTS to identify gynecologic anti-cancer compounds using libraries of approved drugs and bioactive compounds (AID 1345084); also: nearly all actives have a fitted effect of over 55% in size
measurement.parameters: Gynecologic cancer cell panel viability, ATPlite luminescence, 48 h; series mostly up to 57.5 µM
Inconclusive results are not listed. Activity calls are given as the source filed them. The call rests on the fitted dose curve; in most records, active means well fitted cell-killing curve with a large enough effect; inconclusive means small, poorly fitted or top-dose-only effect, or effect the other way; inactive means flat fitted curve, though single readings scatter.
In this exercise, the only acceptable responses are T (active), F (inactive)

Below are worked cases with known answers.
[[record]]
compound = "CO[C@H]1[C@H](O)[C@H](O[C@H]2CC[C@]3(C=O)C4CC[C@]5(C)[C@H](C6=CC(=O)OC6)CC[C@]5(O)C4CC[C@@H]3C2)O[C@@H](C)[C@@H]1O (stereo partly specified)"
label = "T"

[[record]]
compound = "COC1CC(OC2CCC3(C=O)C(CCC4C3CCC3(C)C(C5=CC(=O)OC5)CCC43O)C2)OC(C)C1O (stereo unspecified)"
label = "T"

[[record]]
compound = "CCCN(CCC)CCc1ccc(OC)c(OCCc2ccccc2)c1"
label = "F"

[[record]]
compound = "COC1CC(O[C@H]2CC[C@@]3(C)C(CCC4C3CC[C@]3(C)C(C5=CC(=O)OC5)CCC43O)C2)OC(C)C1OC1OC(COC2OC(CO)C(O)C(O)C2O)C(O)C(O)C1O (stereo partly specified)"
label = "T"

[[record]]
compound = "CC(C)=CCC[C@]1(C)C=Cc2c(O)c3c(c(CC=C(C)C)c2O1)O[C@]12C(=C[C@@H]4CC1C(C)(C)O[C@@]2(C/C=C(/C)C(=O)O)C4=O)C3=O"
label = "T"


Query :: Hey, what did the test say about FC(F)(F)c1ccc(N2CCNCC2)nc1Cl ?
Result :: F

Query :: Continue with Cc1c(N2C(=O)[C@@H]3[C@H](O)CCN3C2=O)ccc(C#N)c1Cl
Result :: F

Query :: Could you do the same for CC(=O)OC[C@]12C[C@H](OC(=O)CC(C)C)C(C)=C[C@H]1O[C@@H]1[C@H](O)C[C@@]2(C)[C@]12CO2 , please?
Result :: T

Query :: Input COc1ccc(CN(C(=O)[C@@H](N)Cc2c(C)cc(C(N)=O)cc2C)[C@@H](C)c2ncc(-c3ccccc3)[nH]2)cc1C(=O)O
Result :: F

---

protocol.summary: Primary fluorescence-based thiol-reactive (MSTI) qHTS assay for identification of artifact compounds. (AID 1845221);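 also: thiol-reactive compounds lower the probe fluorescence signal; nearly all actives have a fitted effect of over 65% in size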
measurement.parameters: MSTI thiol-reactivity probe, 1 h; series mostly up to 53.8 µM
Inconclusive results are not listed. The source made the active and inactive calls. The call rests on the fitted dose curve; in most records, active means well fitted inhibition curve with a large enough effect; inconclusive means small, poorly fitted or top-dose-only effect; inactive means no such curve, though single readings can be large or run the other way.
property.label: activity change, negative = thiol reactive

[[record]]
compound = "COc1ccc(CC2C(=O)NC(C)C(=O)N(C)C3Cc4ccc(cc4)Oc4cc(ccc4OC4OC(CO)C(O)C(O)C4O)CC(C(=O)NC(C)C(=O)NC(CCC(=O)O)C(=O)N2C)N(C)C3=O)cc1 (stereo not given)"
reported = "-0.882% [at 11.5 µM] (inactive)"

[[record]]
compound = "COC1CC(O[C@H]2CC[C@]3(C=O)C4CC[C@]5(C)[C@@H](C6=CC(=O)OC6)CC[C@]5(O)[C@@H]4CC[C@@H]3C2)OC(C)C1O[C@@H]1O[C@H](CO)[C@@H](O[C@@H]2O[C@H](CO)[C@@H](O)[C@H](O)[C@H]2O)[C@H](O)[C@H]1O (stereo not given in full)"
reported = "-23.5% [at 11.5 µM] (inactive)"

[[record]]
compound = "Cc1sc2c(c1C)C(c1ccc(Cl)cc1)=N[C@@H](CC(=O)Nc1ccc(O)cc1)c1nnc(C)n1-2"
reported = "36.2% [at 11.5 µM] (inactive)"


Query :: Please look up its activity change, negative = thiol reactive: CO[C@@H]1[C@@H](O)[C@@H](O[C@H]2CC[C@]3(C=O)C4CC[C@]5(C)[C@@H](C6=CC(=O)OC6)CC[C@]5(O)[C@@H]4CC[C@H]3C2)O[C@@H](C)[C@H]1O[C@@H]1O[C@H](CO[C@@H]2O[C@H](CO)[C@@H](O)[C@H](O)[C@H]2O)[C@@H](O)[C@H](O)[C@H]1O (stereo not given in full)
Result :: 52.3% [at 11.5 µM] (inactive)

Query :: Repeat for the following compound: CO[C@H]1C[C@H](O[C@H]2CC[C@@]3(C)C(=CCC4C3CC[C@]3(C)[C@@H](C5=CC(=O)OC5)CC[C@]43O)C2)O[C@@H](C)[C@@H]1O[C@@H]1O[C@H](CO[C@@H]2O[C@H](CO)[C@@H](O)[C@H](O)[C@H]2O)[C@@H](O)[C@H](O)[C@H]1O (stereo not given in full)
Result :: 94.1% [at 11.5 µM] (inactive)

---

protocol.summary: Primary qHTS to identify inhibitors of SARS-CoV-2 cell entry (AID 1645846); also: nearly all actives have a fitted effect of over 45% in size
measurement.parameters: SARS-CoV-2 pseudovirus cell entry assay, luminescence; series mostly up to 57.1 µM
Inconclusive results are not listed. Calls of active or inactive are those of the source. Calls come from the whole dose curve.
Give your call using only these classes: Yes (active), No (inactive)

Answered examples (4):
[[record]]
molecule = "CCc1ccc(/C=C2/SC(=S)NC2=O)cc1"
label = "Yes"

[[record]]
molecule = "CNc1nc(C)nc(N[C@H]2CCC[C@@H](C(=O)NCc3ccc(C#N)cc3C(F)(F)F)C2)n1"
label = "No"

[[record]]
molecule = "COc1cc([C@@H]2c3cc4c(cc3[C@H](O)[C@H]3COC(=O)[C@@H]23)OCO4)cc(OC)c1OC"
label = "Yes"

[[record]]
molecule = "FC(F)(F)c1ccc(Nc2nc3ccc(Oc4ccnc(-c5ncc(C(F)(F)F)[nH]5)c4)cc3[nH]2)cc1"
label = "Yes"


In the following, a different molecule is considered.
Query :: How did this test come out for C=C1C[C@@]2(O)O[C@@]3(C[C@H]2C(C)C)[C@@H](C)CC[C@@H]13 ?
Result :: No
